- target-of-assay: UniProt O43613
- Sequence (O43613 whole entry): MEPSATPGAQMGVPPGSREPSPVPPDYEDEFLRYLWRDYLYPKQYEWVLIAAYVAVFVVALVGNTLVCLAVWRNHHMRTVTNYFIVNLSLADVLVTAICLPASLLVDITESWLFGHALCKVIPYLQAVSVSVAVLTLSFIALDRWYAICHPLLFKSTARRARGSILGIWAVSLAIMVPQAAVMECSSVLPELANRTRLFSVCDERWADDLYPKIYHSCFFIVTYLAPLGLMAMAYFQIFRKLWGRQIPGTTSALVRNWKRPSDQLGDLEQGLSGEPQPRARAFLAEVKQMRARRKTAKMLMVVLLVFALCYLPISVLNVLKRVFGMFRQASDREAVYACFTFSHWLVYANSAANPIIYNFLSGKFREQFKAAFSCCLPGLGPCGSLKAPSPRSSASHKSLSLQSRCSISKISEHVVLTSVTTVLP
- procedure-text: Human orexin 1 receptor radioligand binding (competitive, [3H]-SB674042, CHO cell preparations)
- run-conditions: human orexin 1 receptor, [3H]-SB674042 competition binding; read-out: hOX1 Ki (nm)
Reported Ki values for a set of compounds
Include the unit right after the number.

COc1ccc(C(=O)N2[C@@H]3CC[C@H]2[C@H](Nc2cnc(C(F)(F)F)cn2)C3)c(-n2nccn2)c1 : 159 nM

Prompt line: What does the data say about its Ki? Entry: Cc1ccc(OCC2CC3CCC2N3C(=O)c2cc(C)ccc2-n2nccn2)nc1 (racemic) [Example 19]
Response line: 12 nM

Prompt line: What does the data say about its Ki? Entry: Cc1ccc(-c2ncccn2)c(C(=O)N2C3CCC2C(COc2ccc(F)cn2)C3)c1 (racemic)
Response line: 9 nM

Prompt line: What does the data say about its Ki? Entry: Cc1ccc(OCC2CC3CCC2N3C(=O)c2ccccc2-c2nc(C)no2)nc1 (racemic)
Response line: 950 nM

###

- target-of-assay: rat orexin 1 receptor (Rattus norvegicus)
- procedure-text: Rat orexin 1 receptor radioligand binding (competitive, [3H]-SB674042, HEK293 cell preparations)
- run-conditions: rOX1 Ki (nm)
pKi: −log10 of the molar value.
Outcome: Condition met for pKi of at least 7; Condition not met for anything lower.

Past entries and their recorded results:
O=C(c1c(F)cccc1-n1nccn1)N1C2CCC1C(COc1ccc(F)cn1)C2 (racemic) [Example 115] : Condition met
O=C(c1nc2ccccc2cc1-n1nccn1)N1C2CCC1C(COc1ccccn1)C2 (racemic) [Example 74] : Condition not met
Cc1ccc(-n2nccn2)c(C(=O)N2C3CCC2C(Nc2cnc4ccccc4n2)C3)n1 (racemic) [Example 230] : Condition not met
Cc1cc(-c2ccc(C)nc2C(=O)N2C3CCC2C(COc2ccc(F)cn2)C3)on1 (racemic) [Example 69] : Condition met
O=C(c1cccc(F)c1-c1ncccn1)N1[C@@H]2CC[C@H]1[C@H](Nc1ccc(C(F)(F)F)cn1)C2 [Example 279] : Condition met

Prompt line: Could you verify whether the entry O=C(c1ccccc1-n1nccn1)N1C2CCC1C(Nc1cnc3ccccc3n1)C2 (racemic) [Example 204] shows pKi of no less than 7?
Response line: Condition met

Prompt line: Could you verify whether the entry Cc1ccc(-n2nccn2)c(C(=O)N2C3CCC2C(COc2cccnc2C)C3)n1 (racemic) [Example 54] shows pKi of no less than 7?
Response line: Condition not met

Prompt line: Could you verify whether the entry CCOc1ccc(C)nc1C(=O)N1C2CCC1C(Nc1ccc(C(F)(F)F)cn1)C2 (racemic) [Example 194] shows pKi of no less than 7?
Response line: Condition not met

Prompt line: Could you verify whether the entry O=C(c1cccc(F)c1-c1ncccn1)N1C2CCC1C(Nc1ccc(C(F)(F)F)cn1)C2 (racemic) [Example 192] shows pKi of no less than 7?
Response line: Condition met

Prompt line: Could you verify whether the entry Cc1cccc(-c2ncccn2)c1C(=O)N1C2CCC1C(COc1ccc(F)cn1)C2 (racemic) [Example 123] shows pKi of no less than 7?
Response line: Condition not met

Prompt line: Could you verify whether the entry O=C(c1cc(F)ccc1-c1ccn[nH]1)N1C2CCC1C(COc1ccc(F)cn1)C2 (racemic) [Example 109] shows pKi of no less than 7?
Response line: Condition met

###

- target-of-assay: UniProtKB O43613
- procedure-text: Human orexin 1 receptor radioligand binding (competitive, [3H]-SB674042, CHO cell preparations)
- run-conditions: hOX1 Ki (nm)
reported-property: pKi
Scale note: pKi = -log10(concentration in M).

Example entries begin here.
Cc1ccc(-c2ncccn2)c(C(=O)N2C3CCC2C(Nc2ccc(C(F)(F)F)cn2)C3)n1 (racemic) : 7.43
Cc1ccc(OCC2CC3CCC2N3C(=O)c2ccc(C)nc2-n2nccn2)nc1 (racemic) : 5.27
O=C(c1ccccc1-n1nccn1)N1C2CCC1C(Nc1ccc(C(F)(F)F)cn1)C2 (racemic) : 7.21

Let's switch to this molecule now.
Prompt line: What does the data say about its pKi? Entry: Cc1ccc(OCC2CC3CCC2N3C(=O)c2ccc(C)nc2-n2ccnn2)nc1 (racemic)
Response line: 5.17
